measured_target: ABHD6 (Mus musculus, UniProt Q8R2Y0)
Sequence (Q8R2Y0 1-336): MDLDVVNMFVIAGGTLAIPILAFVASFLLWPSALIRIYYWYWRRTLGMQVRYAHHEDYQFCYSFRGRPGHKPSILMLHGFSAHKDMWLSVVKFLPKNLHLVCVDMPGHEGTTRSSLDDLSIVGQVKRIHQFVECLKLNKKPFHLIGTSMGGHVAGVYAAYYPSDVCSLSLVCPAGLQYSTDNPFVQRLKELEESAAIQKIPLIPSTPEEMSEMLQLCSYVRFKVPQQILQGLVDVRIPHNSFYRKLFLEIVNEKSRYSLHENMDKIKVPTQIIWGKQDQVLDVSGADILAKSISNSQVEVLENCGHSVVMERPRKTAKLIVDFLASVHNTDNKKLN
measurement_protocol: In vitro competitive activity-based protein profiling (Table 2, % inhibition at 1 μM)
Format: biochemical
reported_conditions: read-out: % Inhibition at 1 μM ABHD6

compound: O=C(ON1C(=O)CCC1=O)N1CC2CN(Cc3ccc(C(=O)N4CCC4)cc3F)CC2C1 (centres unmarked)
inhibition at 1 µM: < 25%

compound: Cc1cccc(CN2CC3CN(C(=O)OC(C(F)(F)F)C(F)(F)F)CC3C2)c1N1CCCCC1 (centres unmarked)
inhibition at 1 µM: < 25%

compound: O=C(ON1C(=O)CCC1=O)N1CC2CN(Cc3ccc(Cl)cc3N3CCn4ncnc4C3)CC2C1 (centres unmarked)
inhibition at 1 µM: < 25%

compound: CC1COCCN1c1cc(F)ccc1CN1CC2CN(C(=O)ON3C(=O)CCC3=O)CC2C1 (centres unmarked)
inhibition at 1 µM: < 25%

compound: Cc1c(CN2CC3CN(C(=O)OC(C(F)(F)F)C(F)(F)F)CC3C2)cccc1C(=O)N1CCCC1 (centres unmarked)
inhibition at 1 µM: 25 to 75%

compound: CCn1cc(CN2CC3CN(C(=O)OC(C(F)(F)F)C(F)(F)F)CC3C2)c(-c2ccccn2)n1 (centres unmarked)
inhibition at 1 µM: < 25%

compound: Cn1nc(-c2cccc(F)c2)cc1CN1CC2CN(C(=O)ON3C(=O)CCC3=O)CC2C1 (centres unmarked)
inhibition at 1 µM: < 25%

compound: Cc1c(CN2CC3CN(C(=O)ON4C(=O)CCC4=O)CC3C2)cccc1N1CCN(C)CC1 (centres unmarked)
inhibition at 1 µM: < 25%

compound: CC(=O)N1CCN(c2ccc(CN3CC4CN(C(=O)OC(C(F)(F)F)C(F)(F)F)CC4C3)c(Cl)c2)CC1 (centres unmarked)
inhibition at 1 µM: < 25%

compound: Cn1cc(CN2CC3CN(C(=O)ON4C(=O)CCC4=O)CC3C2)c(-c2ccccc2Cl)n1 (centres unmarked)
inhibition at 1 µM: < 25%

compound: CC1COCCN1c1cc(F)ccc1CN1CC2CN(C(=O)OC(C(F)(F)F)C(F)(F)F)CC2C1 (centres unmarked)
inhibition at 1 µM: < 25%

###

measured_target: MAGL (Mus musculus)
Sequence (O35678 whole entry): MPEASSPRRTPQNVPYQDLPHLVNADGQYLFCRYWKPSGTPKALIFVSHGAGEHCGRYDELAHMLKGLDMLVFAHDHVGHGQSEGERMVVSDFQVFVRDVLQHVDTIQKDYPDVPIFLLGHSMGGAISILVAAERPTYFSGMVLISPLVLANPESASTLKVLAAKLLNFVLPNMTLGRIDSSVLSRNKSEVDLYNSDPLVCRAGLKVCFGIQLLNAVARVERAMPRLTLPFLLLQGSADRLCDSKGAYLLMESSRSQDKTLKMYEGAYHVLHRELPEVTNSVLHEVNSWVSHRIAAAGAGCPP
measurement_protocol: biochemical
reported_conditions: mouse; in vitro competitive ABPP; read-out: Mouse (IC50 value, nM) MAGL

compound: CCn1cc(CN2CC3CN(C(=O)OC(C(F)(F)F)C(F)(F)F)CC3C2)c(-c2cccc(N3CCCCC3)c2)n1 (stereo not shown)
IC50: < 100 nM

compound: O=C(OC(C(F)(F)F)C(F)(F)F)N1CC2CN(Cc3cccc(C(F)(F)F)c3N3CCOCC3)CC2C1 (stereo not shown)
IC50: < 100 nM

compound: O=C(ON1C(=O)CCC1=O)N1CC2CN(Cc3ccc(N4CCOCC4)cc3Cl)CC2C1 (stereo not shown)
IC50: 100 to 1000 nM

compound: Cc1c(CN2CC3CN(C(=O)OC(C(F)(F)F)C(F)(F)F)CC3C2)cccc1N1CCN(S(C)(=O)=O)CC1 (stereo not shown)
IC50: < 100 nM

compound: Cc1ccc(CN2CC3CN(C(=O)OC(C(F)(F)F)C(F)(F)F)CC3C2)cc1-c1ccccc1 (stereo not shown)
IC50: 100 to 1000 nM

compound: CCN1CCN(c2cccc(CN3CC4CN(C(=O)OC(C(F)(F)F)C(F)(F)F)CC4C3)c2C)CC1 (stereo not shown)
IC50: 100 to 1000 nM

compound: CC(=O)N1CCC2(CCN(c3ccccc3CN3CC4CN(C(=O)OC(C(F)(F)F)C(F)(F)F)CC4C3)C2)C1 (stereo not shown)
IC50: < 100 nM
